procedure summary: Solubility of bimatoprost in water
Type: physicochemical
settings: room temperature
endpoint: solubility (µg/mL)
Answers are plain numbers, in µg/mL.

Ask | Given CCNC(=O)CCC/C=C\C[C@@H]1[C@@H](/C=C/[C@@H](O)CCc2ccccc2)[C@H](O)C[C@@H]1O , state its recorded solubility.
Reply | 3200
